Catalogue of molecules with associated inhibition at 10 µM
System: CCRF-CEM (leukemia)
Experiment: NCI-60 SRB cytotoxicity screen
Type: cell-based
Settings: Homo sapiens, single dose 10 μM, read-out: growth inhibition (GI%)
measure: inhibition at 10 µM

molecule: CCc1cccc2cc(-c3cc(-c4ccc(OC)c(OC)c4)[nH]c(=S)c3C#N)c(Cl)nc12 [Compound 5b]
measure: inhibition at 10 µM
measurement: 28.8%
//
molecule: CCc1cccc2cc(C3C=C(c4ccc(OC)cc4)NC(=S)N3)c(Cl)nc12 (centres unmarked) [Compound 6a]
measure: inhibition at 10 µM
measurement: < 10%
//
molecule: CCc1cccc2cc(-c3cc(-c4ccc(OC)c(OC)c4)[nH]c(=O)c3C#N)c(Cl)nc12 [Compound 4b]
measure: inhibition at 10 µM
measurement: < 10%
//
molecule: CCc1cccc2cc(C=CC(=O)c3ccc(F)cc3)c(Cl)nc12 [Compound 3d]
measure: inhibition at 10 µM
measurement: < 10%
//
molecule: CCc1cccc2cc(C3C=C(c4ccc(Br)cc4)NC(=S)N3)c(Cl)nc12 (centres unmarked) [Compound 6e]
measure: inhibition at 10 µM
measurement: < 10%
//
molecule: CCc1cccc2cc(C3C=C(c4ccc(OC)c(OC)c4)NC(=S)N3)c(Cl)nc12 (centres unmarked) [Compound 6b]
measure: inhibition at 10 µM
measurement: 11%
//
molecule: CCc1cccc2cc(-c3cc(-c4ccc(OC)cc4)[nH]c(=O)c3C#N)c(Cl)nc12 [Compound 4a]
measure: inhibition at 10 µM
measurement: < 10%
//
molecule: CCc1cccc2cc(C=CC(=O)c3ccc(OC)cc3)c(Cl)nc12 [Compound 3a]
measure: inhibition at 10 µM
measurement: 26.9%
